biological target: SARS-COV-2 RBD extracellular domain expressed with a C-terminal myc-myc-hexahistidine tag (SARS-CoV-2); assay: SPR (Biacore), mAb captured by anti-human Fc, RBD-mmH in solution, 25 C
Value Type: t½ (min)
Write it as a number; the unit min goes unstated.

Some solved entries appear below for comparison.
| Binder | t½ / min |
| --- | --- |
| mAb14285 (antibody, V domains shown) VH: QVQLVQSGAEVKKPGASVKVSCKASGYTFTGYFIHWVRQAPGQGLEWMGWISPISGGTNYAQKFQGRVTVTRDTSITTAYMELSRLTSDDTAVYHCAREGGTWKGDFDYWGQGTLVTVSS VL: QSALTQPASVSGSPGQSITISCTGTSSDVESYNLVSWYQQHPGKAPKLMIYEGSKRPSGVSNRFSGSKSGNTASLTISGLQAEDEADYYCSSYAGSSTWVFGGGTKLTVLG | 0.5 |
| mAb15164 (antibody, V domains shown) VH: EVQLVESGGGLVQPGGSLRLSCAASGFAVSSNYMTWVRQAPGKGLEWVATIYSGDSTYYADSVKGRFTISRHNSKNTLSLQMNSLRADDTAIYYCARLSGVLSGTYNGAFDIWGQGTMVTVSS VL: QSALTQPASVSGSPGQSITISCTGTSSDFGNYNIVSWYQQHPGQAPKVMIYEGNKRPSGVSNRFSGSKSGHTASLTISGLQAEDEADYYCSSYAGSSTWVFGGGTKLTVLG | 33.1 |

Okay, now this binder:
Query: Could you please provide reported t½ for mAb13459 (antibody, V domains shown) VH: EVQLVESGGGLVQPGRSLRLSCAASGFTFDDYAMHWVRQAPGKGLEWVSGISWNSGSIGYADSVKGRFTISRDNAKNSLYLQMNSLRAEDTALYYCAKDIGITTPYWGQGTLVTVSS VL: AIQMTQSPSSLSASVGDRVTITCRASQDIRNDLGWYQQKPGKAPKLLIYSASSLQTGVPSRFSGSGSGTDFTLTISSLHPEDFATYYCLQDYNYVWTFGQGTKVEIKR ? Thanks!
Response: 6.6
